Sourced from patent US9663460B2

- target: CCR2 (Homo sapiens (Human), UniProt P41597)
- Sequence (P41597 whole entry, species assumed): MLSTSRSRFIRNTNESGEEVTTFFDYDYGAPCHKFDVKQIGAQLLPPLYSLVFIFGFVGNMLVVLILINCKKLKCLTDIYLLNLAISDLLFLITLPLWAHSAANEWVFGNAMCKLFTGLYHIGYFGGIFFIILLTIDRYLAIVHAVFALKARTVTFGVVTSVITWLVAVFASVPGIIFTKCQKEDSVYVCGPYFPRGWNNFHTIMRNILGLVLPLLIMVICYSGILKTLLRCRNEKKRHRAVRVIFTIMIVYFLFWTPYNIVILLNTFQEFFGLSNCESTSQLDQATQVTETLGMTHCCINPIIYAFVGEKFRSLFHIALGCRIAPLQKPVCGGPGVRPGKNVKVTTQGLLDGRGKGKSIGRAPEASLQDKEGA
- procedure-details: Calcium activity assayed on the FLIPR Tetra in HEK-Gqi5 cells stably expressing CCR2
- applied-conditions: FLIPR Tetra calcium assay
pIC50: −log10 of the molar value.

[
  {
    "molecule": "C[S+]([O-])c1ccc(Cl)cc1NS(=O)(=O)c1ccc(I)cc1 (centres unmarked)",
    "pIC50": 6.59
  },
  {
    "molecule": "O=S(=O)(Nc1cc(Cl)ccc1SC(F)(F)F)c1cc2ccccc2o1",
    "pIC50": 6.48
  },
  {
    "molecule": "CC(=O)NCCS(=O)(=O)c1ccc(Cl)cc1NS(=O)(=O)c1ccc(Cl)c(C(F)(F)F)c1",
    "pIC50": 5.28
  },
  {
    "molecule": "O=S(=O)(Nc1cc(Cl)ccc1SCc1ccccc1)c1cc2ccccc2o1",
    "pIC50": 6.89
  },
  {
    "molecule": "O=S(=O)(Nc1cc(Cl)ccc1S(=O)(=O)C(F)(F)F)c1cc2ccccc2o1",
    "pIC50": 7.14
  }
]

----------
- target: CCR2 (Homo sapiens (Human), UniProt P41597)
- procedure-details: Calcium activity assayed on the FLIPR Tetra in HEK-Gqi5 cells stably expressing CCR2
- Assay type: cell-based
- applied-conditions: FLIPR Tetra calcium assay
Collected CCR2 % ANTAGONISM values appear next to each entry.

[
  {
    "molecule": "O=S(=O)(Nc1cc(Cl)ccc1SCc1cccc(O)c1)c1cc2ccccc2o1",
    "CCR2 % ANTAGONISM, %": 98
  },
  {
    "molecule": "O=S(=O)(Nc1cc(Cl)ccc1[S+]([O-])Cc1ncc[nH]1)c1ccc(Cl)c(C(F)(F)F)c1 (stereo not drawn)",
    "CCR2 % ANTAGONISM, %": 109
  },
  {
    "molecule": "Nc1cccc(C[S+]([O-])c2ccc(Cl)cc2NS(=O)(=O)c2ccc(Cl)cc2)c1 (stereo not drawn)",
    "CCR2 % ANTAGONISM, %": 99
  },
  {
    "molecule": "C[S+]([O-])c1ccc(Cl)cc1NS(=O)(=O)c1ccc(F)cc1F (stereo not drawn)",
    "CCR2 % ANTAGONISM, %": 98
  },
  {
    "molecule": "COc1ccc(SCc2cccc(N)c2)c(NS(=O)(=O)c2cc3ccccc3o2)c1",
    "CCR2 % ANTAGONISM, %": 100
  },
  {
    "molecule": "CN(C)C(=O)C[S+]([O-])c1ccc(Cl)cc1NS(=O)(=O)c1ccc(Cl)c(C(F)(F)F)c1 (stereo not drawn)",
    "CCR2 % ANTAGONISM, %": 100
  }
]

----------
- target: CCR2 (Homo sapiens (Human), UniProt P41597)
- procedure-details: Calcium activity assayed on the FLIPR Tetra in HEK-Gqi5 cells stably expressing CCR2
- applied-conditions: FLIPR Tetra calcium assay

[
  {
    "compound": "O=S(=O)(Cc1cccnc1F)c1ccc(Cl)cc1NS(=O)(=O)c1cc2ccccc2o1",
    "readout-units": "µM",
    "IC50": 0.079
  },
  {
    "compound": "O=S(=O)(Nc1cc(Cl)ccc1[S+]([O-])Cc1cccc[n+]1[O-])c1cc2ccccc2o1 (stereo not drawn)",
    "readout-units": "µM",
    "IC50": 0.846
  },
  {
    "compound": "O=S(=O)(Cc1ncc[nH]1)c1ccc(Cl)cc1NS(=O)(=O)c1cc2ccccc2o1",
    "readout-units": "µM",
    "IC50": 1.35
  },
  {
    "compound": "CNC(=O)C[S+]([O-])c1ccc(Cl)cc1NS(=O)(=O)c1ccc(Cl)c(C(F)(F)F)c1 (stereo not drawn)",
    "readout-units": "µM",
    "IC50": 0.329
  },
  {
    "compound": "O=S(=O)(CCc1cn[nH]c1)c1ccc(Cl)cc1NS(=O)(=O)c1cc2ccccc2o1",
    "readout-units": "µM",
    "IC50": 0.57
  },
  {
    "compound": "CSc1ccc(Cl)cc1NS(=O)(=O)c1ccc(Cl)cc1",
    "readout-units": "µM",
    "IC50": 0.406
  },
  {
    "compound": "O=S(=O)(Nc1cc(Cl)ccc1SCCO)c1ccc(Cl)c(C(F)(F)F)c1",
    "readout-units": "µM",
    "IC50": 0.153
  },
  {
    "compound": "C[S+]([O-])c1ccc(Cl)cc1NS(=O)(=O)c1ccc(Cl)cc1F (stereo not drawn)",
    "readout-units": "µM",
    "IC50": 0.085
  },
  {
    "compound": "Nc1nc(C[S+]([O-])c2ccc(Cl)cc2NS(=O)(=O)c2cc3ccccc3o2)cs1 (stereo not drawn)",
    "readout-units": "µM",
    "IC50": 0.262
  },
  {
    "compound": "CS(=O)(=O)c1ccc(Cl)cc1NS(=O)(=O)c1ccc(Cl)cc1F",
    "readout-units": "µM",
    "IC50": 0.171
  },
  {
    "compound": "O=c1[nH]cc(C[S+]([O-])c2ccc(Cl)cc2NS(=O)(=O)c2cc3ccccc3o2)c(=O)[nH]1 (stereo not drawn)",
    "readout-units": "µM",
    "IC50": 3.08
  },
  {
    "compound": "CN(C)C(=O)CCS(=O)(=O)c1ccc(Cl)cc1NS(=O)(=O)c1ccc(Cl)cc1F",
    "readout-units": "µM",
    "IC50": 0.211
  },
  {
    "compound": "O=S(=O)(Nc1cc(Cl)ccc1S(=O)(=O)C1CCC(O)C1)c1ccc(Cl)c(C(F)(F)F)c1 (stereo not drawn)",
    "readout-units": "µM",
    "IC50": 0.076
  },
  {
    "compound": "CSc1ccc(Cl)cc1NS(=O)(=O)c1ccc(Cl)c(C(F)(F)F)c1",
    "readout-units": "µM",
    "IC50": 0.134
  },
  {
    "compound": "O=[N+]([O-])c1cc(C[S+]([O-])c2ccc(Cl)cc2NS(=O)(=O)c2cc3ccccc3o2)n[nH]1 (stereo not drawn)",
    "readout-units": "µM",
    "IC50": 0.752
  },
  {
    "compound": "CC(C)(C)OC(=O)Nc1cc(CSc2ccc(Cl)cc2NS(=O)(=O)c2cc3ccccc3o2)ccn1",
    "readout-units": "µM",
    "IC50": 2
  },
  {
    "compound": "O=S(=O)(Nc1cc(Cl)ccc1SCc1c[nH]cn1)c1cc2ccccc2o1",
    "readout-units": "µM",
    "IC50": 0.01
  },
  {
    "compound": "Nc1cc(CS(=O)(=O)c2ccc(Cl)cc2NS(=O)(=O)c2cc3ccccc3o2)cc[n+]1[O-]",
    "readout-units": "µM",
    "IC50": 9.96
  },
  {
    "compound": "NCCSc1ccc(Cl)cc1NS(=O)(=O)c1ccc(Cl)c(C(F)(F)F)c1",
    "readout-units": "µM",
    "IC50": 1.07
  },
  {
    "compound": "O=S(=O)(Cc1ncccn1)c1ccc(Cl)cc1NS(=O)(=O)c1cc2ccccc2o1",
    "readout-units": "µM",
    "IC50": 0.151
  },
  {
    "compound": "CSc1ccc(Cl)cc1NS(=O)(=O)c1ccc(I)cc1",
    "readout-units": "µM",
    "IC50": 2.03
  },
  {
    "compound": "Nc1cccc(C[S+]([O-])c2ccc(Cl)cc2NS(=O)(=O)c2ccccc2)c1 (stereo not drawn)",
    "readout-units": "µM",
    "IC50": 2.56
  },
  {
    "compound": "O=S(=O)(Cc1cccnc1)c1ccc(Cl)cc1NS(=O)(=O)c1cc2ccccc2o1",
    "readout-units": "µM",
    "IC50": 0.032
  },
  {
    "compound": "O=S(=O)(Nc1cc(Cl)ccc1SCc1ccccn1)c1ccc(Cl)c(C(F)(F)F)c1",
    "readout-units": "µM",
    "IC50": 0.199
  },
  {
    "compound": "CCCn1cnc(CS(=O)(=O)c2ccc(Cl)cc2NS(=O)(=O)c2cc3ccccc3o2)c1",
    "readout-units": "µM",
    "IC50": 0.804
  },
  {
    "compound": "O=S(=O)(Nc1cc(Cl)ccc1SCc1ccccn1)c1cc2ccccc2o1",
    "readout-units": "µM",
    "IC50": 0.035
  },
  {
    "compound": "O=C1NCC(C[S+]([O-])c2ccc(Cl)cc2NS(=O)(=O)c2cc3ccccc3o2)O1 (stereo not drawn)",
    "readout-units": "µM",
    "IC50": 2.13
  },
  {
    "compound": "CNC(=O)CS(=O)(=O)c1ccc(Cl)cc1NS(=O)(=O)c1ccc(Cl)c(C(F)(F)F)c1",
    "readout-units": "µM",
    "IC50": 0.469
  },
  {
    "compound": "Cc1n[nH]c(C)c1CCSc1ccc(Cl)cc1NS(=O)(=O)c1cc2ccccc2o1",
    "readout-units": "µM",
    "IC50": 0.279
  },
  {
    "compound": "C[S+]([O-])c1ccc(Cl)cc1NS(=O)(=O)c1ccc(Br)cc1 (stereo not drawn)",
    "readout-units": "µM",
    "IC50": 0.116
  },
  {
    "compound": "Nc1cccc(CSc2ccc(Cl)cc2NS(=O)(=O)c2ccc(Cl)cc2)c1",
    "readout-units": "µM",
    "IC50": 3.89
  },
  {
    "compound": "CC(C)NC(=O)CCSc1ccc(Cl)cc1NS(=O)(=O)c1ccc(Cl)c(C(F)(F)F)c1",
    "readout-units": "µM",
    "IC50": 1.03
  },
  {
    "compound": "C[S+]([O-])c1ccc(Cl)cc1NS(=O)(=O)c1cccs1 (stereo not drawn)",
    "readout-units": "µM",
    "IC50": 1.11
  },
  {
    "compound": "CN(C)C(=O)CC[S+]([O-])c1ccc(Cl)cc1NS(=O)(=O)c1ccc(F)cc1F (stereo not drawn)",
    "readout-units": "µM",
    "IC50": 1.48
  },
  {
    "compound": "Nc1cccc(CSc2ccc(F)cc2NS(=O)(=O)c2cc3ccccc3o2)c1",
    "readout-units": "µM",
    "IC50": 0.055
  },
  {
    "compound": "NC(=O)NCCS(=O)(=O)c1ccc(Cl)cc1NS(=O)(=O)c1cc2ccccc2o1",
    "readout-units": "µM",
    "IC50": 2
  },
  {
    "compound": "O=[N+]([O-])c1cccc(CS(=O)(=O)c2ccccc2NS(=O)(=O)c2cc3ccccc3o2)c1",
    "readout-units": "µM",
    "IC50": 2.13
  },
  {
    "compound": "CSc1ccc(Cl)cc1NS(=O)(=O)c1ccc(Cl)c(C)c1",
    "readout-units": "µM",
    "IC50": 0.453
  },
  {
    "compound": "O=S(=O)(Nc1cc(Cl)ccc1[S+]([O-])C1CCC(O)C1)c1ccc(Cl)c(C(F)(F)F)c1 (stereo not drawn)",
    "readout-units": "µM",
    "IC50": 0.107
  }
]
